# credit: patent US20260132200A1

# Experimental target: T1, human CD20 expressed on Raji cells (CD3-, CD20+ human B-cell line) (human, UniProt P11836 1-297)
# T1 sequence: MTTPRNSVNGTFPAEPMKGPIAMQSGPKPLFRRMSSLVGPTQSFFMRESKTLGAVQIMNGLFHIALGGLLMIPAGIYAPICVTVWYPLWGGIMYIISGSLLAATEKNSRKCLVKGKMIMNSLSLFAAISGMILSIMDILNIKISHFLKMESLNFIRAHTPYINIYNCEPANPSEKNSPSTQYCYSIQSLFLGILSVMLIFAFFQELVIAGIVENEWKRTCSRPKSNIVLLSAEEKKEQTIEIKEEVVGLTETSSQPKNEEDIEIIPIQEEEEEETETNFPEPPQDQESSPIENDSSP
# Test description: FACS on Raji cells
Reported endpoint: EC50 (nM)

Binder: BS3/20-004 (bispecific antibody, V domains shown) VH 1: EVQLVESGGGLVQPGRSLRLSCVASGFTFNDYAMHWVRQAPGKGLEWVSVISWNSDSIGYADSVKGRFTISRDNAKNSLYLQMHSLRAEDTALYYCAKDNHYGSGSYYYYQYGMDVWGQGTTVTVSS VH 2: QVQLVESGGGVVQPGRSLRLSCAASGFTFRSYAMHWVRQAPGKGLEWVAMVYYDGNNQYYADSVRGRFTISRDNSKNTLYLQMNSLRADDTAVYFCARGPGYNWLDPWGQGTLVTVSS VL: EIVMTQSPATLSVSPGERATLSCRASQSVSRNLAWYQQKPGQAPRLLIYGASTRATGIPARFSGSGSGTDFTLTISSLQSEDFAVYYCQQYNNWPLTFGGGTKVVIK
Reported endpoint: EC50
Quantitative result: 10.2
